Reported RLU values for a set of molecules
# SUBJECT_OF_TEST: human TAS2R1 (Homo sapiens)
# Construct: expressed in transfected cells; host or cells: HEK293T-Gα16gust44
# EXPERIMENT_SUMMARY: Calcium imaging assay (FLIPR), HEK293T-Gα16gust44 cells transfected with human TAS2R1
# Format: cell-based
# EXPERIMENTAL_CONDITIONS: Time 185.562 s
Entry rule: numbers only, all in RLU.

// known answers, use as guide
C[C@H](CCC(=O)O)[C@H]1CC[C@H]2[C@@H]3[C@H](O)C[C@@H]4C[C@H](O)CC[C@]4(C)[C@H]3CC[C@]12C; 341.893
C[C@H](CCC(=O)O)[C@H]1CC[C@H]2[C@@H]3[C@H](O)C[C@@H]4C[C@H](O)CC[C@]4(C)[C@H]3C[C@H](O)[C@]12C; 110.643
C[C@H](CCC(=O)O)[C@H]1CC[C@H]2[C@@H]3CC[C@@H]4C[C@H](O)CC[C@]4(C)[C@H]3CC[C@]12C; 562.77

Let us move to another entry and its RLU.
Fill in: RLU of C[C@H](CCC(=O)O)[C@H]1CC[C@H]2[C@@H]3[C@@H](O)C[C@@H]4C[C@H](O)CC[C@]4(C)[C@H]3CC[C@]12C is ___
83.8515

====

# SUBJECT_OF_TEST: human TAS2R14 (Homo sapiens, UniProt Q9NYV8)
# Construct: expressed in transfected cells; host or cells: HEK293T-Gα16gust44
# Sequence (Q9NYV8 1-317): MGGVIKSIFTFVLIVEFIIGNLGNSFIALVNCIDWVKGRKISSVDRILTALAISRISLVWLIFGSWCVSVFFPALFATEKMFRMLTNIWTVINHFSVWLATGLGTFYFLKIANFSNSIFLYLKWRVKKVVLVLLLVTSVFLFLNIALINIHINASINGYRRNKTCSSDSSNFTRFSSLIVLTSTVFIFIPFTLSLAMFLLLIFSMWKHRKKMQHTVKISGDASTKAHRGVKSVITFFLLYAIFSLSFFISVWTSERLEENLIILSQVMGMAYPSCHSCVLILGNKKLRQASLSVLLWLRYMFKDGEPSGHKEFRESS
# EXPERIMENT_SUMMARY: Calcium imaging assay (FLIPR), HEK293T-Gα16gust44 cells transfected with human TAS2R14
# Type: cell-based
# EXPERIMENTAL_CONDITIONS: TAS2R14 trace; Time (s) 233.578 (Taurocholic Acid 233.563, Chenodeoxycholic Acid 233.546)
# Protocol: This set of bile acids was chosen because of their commercial availability in high purities, their diversity within the class of bile acids and their previous detection and quantitation in human blood. Stock solutions were prepared in DMSO. […] Measured data were negative control corrected by subtracting the signal of the mock-transfected cells and exported to Microsoft Excel using the FLIPR software ScreenWorks 4.2. […]
Listed here are molecules together with their documented RLU.
Quick reminder: number only, in RLU, skip the unit.

# count of solved cases: 2
C[C@H](CCC(=O)NCCS(=O)(=O)O)[C@H]1CC[C@H]2[C@@H]3[C@H](O)C[C@@H]4C[C@H](O)CC[C@]4(C)[C@H]3C[C@H](O)[C@]12C; 416.225
C[C@H](CCC(=O)O)[C@H]1CC[C@H]2[C@@H]3[C@H](O)C[C@@H]4C[C@H](O)CC[C@]4(C)[C@H]3CC[C@]12C; 198.132

What value of measured RLU is listed for C[C@H](CCC(=O)NCC(=O)O)[C@H]1CC[C@H]2[C@@H]3[C@H](O)C[C@@H]4C[C@H](O)CC[C@]4(C)[C@H]3C[C@H](O)[C@]12C ?
445.674

RLU lookup needed for C[C@H](CCC(=O)NCCS(=O)(=O)O)[C@H]1CC[C@H]2[C@@H]3CC[C@@H]4C[C@H](O)CC[C@]4(C)[C@H]3CC[C@]12C , thanks.
155.879

What does the data say about its RLU? Entry: C[C@H](CCC(=O)O)[C@H]1CC[C@H]2[C@@H]3[C@H](O)C[C@@H]4C[C@H](O)CC[C@]4(C)[C@H]3C[C@H](O)[C@]12C
528.668

====

// reported RLU per item
# SUBJECT_OF_TEST: human TAS2R14 (Homo sapiens, UniProt Q9NYV8)
# Construct: expressed in transfected cells; host or cells: HEK293T-Gα16gust44
# Sequence (Q9NYV8 1-317): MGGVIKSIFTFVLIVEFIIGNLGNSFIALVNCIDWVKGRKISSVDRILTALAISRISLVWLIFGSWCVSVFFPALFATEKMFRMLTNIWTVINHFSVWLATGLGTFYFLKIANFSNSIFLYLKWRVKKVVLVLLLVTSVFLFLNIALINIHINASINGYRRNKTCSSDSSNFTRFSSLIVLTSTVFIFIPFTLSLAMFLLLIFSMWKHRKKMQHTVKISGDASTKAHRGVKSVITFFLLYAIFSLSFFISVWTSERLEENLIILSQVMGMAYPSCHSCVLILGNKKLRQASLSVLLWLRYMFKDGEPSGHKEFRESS
# EXPERIMENT_SUMMARY: Calcium imaging assay (FLIPR), HEK293T-Gα16gust44 cells transfected with human TAS2R14
# Type: cell-based
# EXPERIMENTAL_CONDITIONS: TAS2R14 trace; Time (s) 143.578 (Taurocholic Acid 143.563, Chenodeoxycholic Acid 143.546)
Please state the value followed by its unit.

Some compounds with recorded RLU:
C[C@H](CCC(=O)NCCS(=O)(=O)O)[C@H]1CC[C@H]2[C@@H]3[C@H](O)C[C@@H]4C[C@H](O)CC[C@]4(C)[C@H]3C[C@H](O)[C@]12C [Taurocholic Acid, taurocholic acid]; 1008.4 RLU
C[C@H](CCC(=O)NCC(=O)O)[C@H]1CC[C@H]2[C@@H]3[C@H](O)C[C@@H]4C[C@H](O)CC[C@]4(C)[C@H]3C[C@H](O)[C@]12C [Glycocholic Acid, glycocholic acid]; 874.438 RLU
C[C@H](CCC(=O)O)[C@H]1CC[C@H]2[C@@H]3[C@H](O)C[C@@H]4C[C@H](O)CC[C@]4(C)[C@H]3C[C@H](O)[C@]12C [Cholic Acid, cholic acid]; 1235.79 RLU
C[C@H](CCC(=O)O)[C@H]1CC[C@H]2[C@@H]3[C@H](O)C[C@@H]4C[C@H](O)CC[C@]4(C)[C@H]3CC[C@]12C [Chenodeoxycholic Acid, chenodeoxycholic acid]; 380.071 RLU

--- query ---
May I ask what RLU has been recorded for C[C@H](CCC(=O)NCCS(=O)(=O)O)[C@H]1CC[C@H]2[C@@H]3CC[C@@H]4C[C@H](O)CC[C@]4(C)[C@H]3CC[C@]12C [Taurolithocholic Acid, taurolithocholic acid] ?
394.002 RLU

====

# SUBJECT_OF_TEST: human TAS2R1 (Homo sapiens, UniProt Q9NYW7)
# Construct: expressed in transfected cells; host or cells: HEK293T-Gα16gust44
# Sequence (Q9NYW7 whole entry): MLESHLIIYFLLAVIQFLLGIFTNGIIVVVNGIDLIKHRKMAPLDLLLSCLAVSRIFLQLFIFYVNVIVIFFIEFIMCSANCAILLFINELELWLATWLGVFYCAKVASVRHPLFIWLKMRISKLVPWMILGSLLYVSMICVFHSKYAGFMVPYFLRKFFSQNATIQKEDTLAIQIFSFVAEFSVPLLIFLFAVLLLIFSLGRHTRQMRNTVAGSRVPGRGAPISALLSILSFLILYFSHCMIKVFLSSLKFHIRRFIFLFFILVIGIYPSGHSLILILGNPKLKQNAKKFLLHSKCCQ
# EXPERIMENT_SUMMARY: Calcium imaging assay (FLIPR), HEK293T-Gα16gust44 cells transfected with human TAS2R1
# Assay type: cell-based
# EXPERIMENTAL_CONDITIONS: Time 8 s
# Method: This set of bile acids was chosen because of their commercial availability in high purities, their diversity within the class of bile acids and their previous detection and quantitation in human blood. Stock solutions were prepared in DMSO. […] Measured data were negative control corrected by subtracting the signal of the mock-transfected cells and exported to Microsoft Excel using the FLIPR software ScreenWorks 4.2. […]
OUTCOME_MEASURE: RLU

C[C@H](CCC(=O)NCCS(=O)(=O)O)[C@H]1CC[C@H]2[C@@H]3[C@H](O)C[C@@H]4C[C@H](O)CC[C@]4(C)[C@H]3C[C@H](O)[C@]12C [Taurocholic Acid, taurocholic acid]; -1.092 RLU

Value lookup for RLU; key = C[C@H](CCC(=O)NCCS(=O)(=O)O)[C@H]1CC[C@H]2[C@@H]3CC[C@@H]4C[C@H](O)CC[C@]4(C)[C@H]3CC[C@]12C [Taurolithocholic Acid, taurolithocholic acid]
18.099 RLU

What RLU value was documented for this compound, C[C@H](CCC(=O)O)[C@H]1CC[C@H]2[C@@H]3CC[C@@H]4C[C@H](O)CC[C@]4(C)[C@H]3C[C@H](O)[C@]12C [Deoxycholic Acid, deoxycholic acid] ?
-1.537 RLU

Form field: reported RLU of C[C@H](CCC(=O)NCC(=O)O)[C@H]1CC[C@H]2[C@@H]3[C@H](O)C[C@@H]4C[C@H](O)CC[C@]4(C)[C@H]3C[C@H](O)[C@]12C [Glycocholic Acid, glycocholic acid]
-18.797 RLU

====

Documented RLU, fluorescence trace across a set of compounds
# SUBJECT_OF_TEST: human TAS2R4 (Homo sapiens, UniProt Q9NYW5)
# Construct: expressed in transfected cells; host or cells: HEK293T-Gα16gust44
# Sequence (Q9NYW5 1-299): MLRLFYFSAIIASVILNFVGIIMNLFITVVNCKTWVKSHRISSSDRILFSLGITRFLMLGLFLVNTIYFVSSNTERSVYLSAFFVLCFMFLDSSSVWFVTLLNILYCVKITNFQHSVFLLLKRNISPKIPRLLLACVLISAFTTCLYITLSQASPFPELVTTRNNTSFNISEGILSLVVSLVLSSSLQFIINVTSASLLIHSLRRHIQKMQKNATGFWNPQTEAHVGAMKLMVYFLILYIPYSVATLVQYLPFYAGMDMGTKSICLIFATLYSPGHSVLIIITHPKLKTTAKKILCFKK
# EXPERIMENT_SUMMARY: Calcium imaging assay (FLIPR), HEK293T-Gα16gust44 cells transfected with human TAS2R4; note: test concentration or dose not given here
# Type: cell-based
# EXPERIMENTAL_CONDITIONS: Time (s) 100.781 (TCA, TLCA: 100.782)
# Description: This set of bile acids was chosen because of their commercial availability in high purities, their diversity within the class of bile acids and their previous detection and quantitation in human blood. Stock solutions were prepared in DMSO. […] Measured data were negative control corrected by subtracting the signal of the mock-transfected cells and exported to Microsoft Excel using the FLIPR software ScreenWorks 4.2. […]
Remember to follow the number with its unit.

C[C@H](CCC(=O)O)[C@H]1CC[C@H]2[C@@H]3CC[C@@H]4C[C@H](O)CC[C@]4(C)[C@H]3C[C@H](O)[C@]12C; 338.006 RLU
C[C@H](CCC(=O)NCCS(=O)(=O)O)[C@H]1CC[C@H]2[C@@H]3[C@H](O)C[C@@H]4C[C@H](O)CC[C@]4(C)[C@H]3C[C@H](O)[C@]12C; 661.771 RLU
C[C@H](CCC(=O)NCC(=O)O)[C@H]1CC[C@H]2[C@@H]3[C@H](O)C[C@@H]4C[C@H](O)CC[C@]4(C)[C@H]3C[C@H](O)[C@]12C; 678.663 RLU
C[C@H](CCC(=O)O)[C@H]1CC[C@H]2[C@@H]3[C@H](O)C[C@@H]4C[C@H](O)CC[C@]4(C)[C@H]3C[C@H](O)[C@]12C; 594.46 RLU
C[C@H](CCC(=O)NCCS(=O)(=O)O)[C@H]1CC[C@H]2[C@@H]3CC[C@@H]4C[C@H](O)CC[C@]4(C)[C@H]3CC[C@]12C; 282.827 RLU

Turning now to a further compound:
Lab note: need RLU, fluorescence trace with human TAS2R4 (Homo sapiens, UniProt Q9NYW5) for entry C[C@H](CCC(=O)O)[C@H]1CC[C@H]2[C@@H]3[C@@H](O)C[C@@H]4C[C@H](O)CC[C@]4(C)[C@H]3CC[C@]12C , please look it up.
293.739 RLU

Data credit: paper PMC10247784
